From: ChEMBL document CHEMBL5724796

Target: Transcription intermediary factor 1-alpha (Homo sapiens) (UniProt O15164)
Sequence (whole entry): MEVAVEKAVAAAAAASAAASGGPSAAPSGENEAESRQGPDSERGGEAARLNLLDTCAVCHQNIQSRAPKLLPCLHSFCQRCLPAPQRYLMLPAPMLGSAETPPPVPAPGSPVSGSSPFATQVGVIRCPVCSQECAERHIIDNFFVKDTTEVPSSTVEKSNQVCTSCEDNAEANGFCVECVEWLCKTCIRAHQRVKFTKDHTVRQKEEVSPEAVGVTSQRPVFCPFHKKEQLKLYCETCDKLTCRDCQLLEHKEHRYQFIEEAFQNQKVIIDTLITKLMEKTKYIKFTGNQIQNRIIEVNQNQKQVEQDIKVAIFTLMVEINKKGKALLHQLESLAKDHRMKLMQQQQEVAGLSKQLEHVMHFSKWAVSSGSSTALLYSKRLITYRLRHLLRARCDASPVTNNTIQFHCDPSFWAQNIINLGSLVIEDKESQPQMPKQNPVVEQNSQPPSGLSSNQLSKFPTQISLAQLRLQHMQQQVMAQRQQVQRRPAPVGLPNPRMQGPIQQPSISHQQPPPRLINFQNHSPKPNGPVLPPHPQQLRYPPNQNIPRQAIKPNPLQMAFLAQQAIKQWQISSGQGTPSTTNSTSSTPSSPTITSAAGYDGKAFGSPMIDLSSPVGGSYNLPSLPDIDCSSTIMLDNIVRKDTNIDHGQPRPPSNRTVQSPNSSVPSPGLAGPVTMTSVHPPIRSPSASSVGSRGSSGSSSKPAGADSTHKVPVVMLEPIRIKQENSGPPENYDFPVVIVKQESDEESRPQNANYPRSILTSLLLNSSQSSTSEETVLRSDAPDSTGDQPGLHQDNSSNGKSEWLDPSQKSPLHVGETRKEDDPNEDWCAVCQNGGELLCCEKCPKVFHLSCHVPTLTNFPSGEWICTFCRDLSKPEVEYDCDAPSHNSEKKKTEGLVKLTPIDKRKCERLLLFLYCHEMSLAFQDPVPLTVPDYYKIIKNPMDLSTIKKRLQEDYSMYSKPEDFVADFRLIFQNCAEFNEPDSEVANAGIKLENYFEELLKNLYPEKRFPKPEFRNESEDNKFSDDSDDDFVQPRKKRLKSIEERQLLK
Details: Compound concentration 20.0 uM

>  <compound-structure-string>
COc1cc(O)c2c(c1)/C=C\C[C@H](O)[C@H](O)C(=O)/C=C\C[C@H](C)OC2=O

>  <experimental-target>
Transcription intermediary factor 1-alpha (Homo sapiens) (UniProt O15164)

>  <ΔTm>
-0.14 °C

$$$$
>  <compound-structure-string>
Nc1cccc(CNC(=O)c2ccc(Oc3ccc(OCc4cccc(F)c4)cc3)nc2)c1

>  <experimental-target>
Transcription intermediary factor 1-alpha (Homo sapiens) (UniProt O15164)

>  <ΔTm>
0.24 °C

$$$$
>  <compound-structure-string>
O=C(NCCCCc1ccccc1)n1c(=O)oc2cc(-c3ccc(F)cc3)ccc21

>  <experimental-target>
Transcription intermediary factor 1-alpha (Homo sapiens) (UniProt O15164)

>  <ΔTm>
0.81 °C

$$$$
